Values were extracted from the supplement of paper PMC3334620.

# measured.on: Stb5 (UniProt P38699)
# Sequence: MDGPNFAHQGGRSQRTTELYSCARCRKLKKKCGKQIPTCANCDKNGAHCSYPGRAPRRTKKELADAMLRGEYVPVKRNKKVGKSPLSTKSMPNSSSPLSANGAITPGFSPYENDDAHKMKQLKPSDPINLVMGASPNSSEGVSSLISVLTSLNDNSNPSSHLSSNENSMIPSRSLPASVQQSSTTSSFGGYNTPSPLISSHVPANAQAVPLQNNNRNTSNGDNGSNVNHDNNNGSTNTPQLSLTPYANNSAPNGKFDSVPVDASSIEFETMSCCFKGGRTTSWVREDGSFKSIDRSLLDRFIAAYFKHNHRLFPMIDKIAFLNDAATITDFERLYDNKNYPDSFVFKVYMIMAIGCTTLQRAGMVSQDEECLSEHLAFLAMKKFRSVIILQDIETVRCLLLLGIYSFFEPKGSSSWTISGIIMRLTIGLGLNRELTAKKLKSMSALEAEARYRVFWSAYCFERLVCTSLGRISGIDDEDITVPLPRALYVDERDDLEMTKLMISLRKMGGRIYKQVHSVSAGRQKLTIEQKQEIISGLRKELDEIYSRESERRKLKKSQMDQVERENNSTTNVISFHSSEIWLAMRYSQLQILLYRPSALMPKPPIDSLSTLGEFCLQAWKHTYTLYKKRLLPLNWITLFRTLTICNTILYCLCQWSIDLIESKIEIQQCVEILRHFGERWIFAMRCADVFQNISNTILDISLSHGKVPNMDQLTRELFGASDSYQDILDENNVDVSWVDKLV
# assay.overview: PBM E-score (8-mer binding enrichment) (E-score (-0.5 to 0.5)); higher = stronger / more preferred TF binding
# experimental.conditions: protein concentration: 200 nM; construct: GST-full length
Whole data set: some 33,000 sequences, median “E-score (-0.5 to 0.5)” near -0.054, cut for the highest 2% near 0.35. Many of the other results were omitted from the sample, so the highest values are more common in it than they were.
measurement.kind: PBM E-score
Enter the number alone.

chain	PBM E-score
CGGCTATA	0.367
AGGCTCTA	-0.0942
AGGCTATA	0.0655
AATTCTCG	-0.186
ACCGTCGG	0.392
CGGCTTTC	0.061
GGCACTGA	0.00323
AACCCGCG	0.231
CCCGTCGA	0.206
GGGCTTTA	0.326

So what does the record say about PBM E-score for TCACCCGA ? 0.089

So what does the record say about PBM E-score for AACCCCCA ? -0.0755

So what does the record say about PBM E-score for CGTTCCGA ? 0.00452

So what does the record say about PBM E-score for AACCCCGA ? 0.473

So what does the record say about PBM E-score for CGGCTCTC ? -0.0773
